The measured values listed here are drawn from ChEMBL document CHEMBL3045794.

System: Staphylococcus aureus
Experiment: Antibacterial activity against Staphylococcus aureus MTCC 96 assessed as diameter of growth inhibition zone after 24 hr by Kirby-Bauer disk diffusion method
Format: functional
Measured diameter of the inhibition zone (DIZ), listed per entry for reference.
Value expressed in mm; do not type the unit.

# COMPOUND STRING, MEASURED TARGET, diameter of the inhibition zone (DIZ) [mm]
records = [
    ("O=C1S/C(=C\\c2ccc(S(=O)(=O)Nc3nc(-c4ccccc4)cs3)cc2)C(=O)N1C(=O)c1ccc([N+](=O)[O-])cc1[N+](=O)[O-]", "Staphylococcus aureus", 23),
    ("Cc1ccc(C(=O)N2C(=O)S/C(=C\\c3ccc(S(=O)(=O)Nc4nc(-c5ccccc5)cs4)cc3)C2=O)cc1", "Staphylococcus aureus", 22),
    ("O=C1S/C(=C\\c2ccc(S(=O)(=O)Nc3nc(-c4ccccc4)cs3)cc2)C(=O)N1C(=O)c1ccccc1Cl", "Staphylococcus aureus", 24),
]

## Input Lookup: diameter of the inhibition zone (DIZ) / Staphylococcus aureus / O=C1S/C(=C\c2ccc(S(=O)(=O)Nc3nc(-c4ccccc4)cs3)cc2)C(=O)N1C(=O)c1cccc(Cl)c1
## Output 26

## Input Field entry: O=C1S/C(=C\c2ccc(S(=O)(=O)Nc3nc(-c4ccccc4)cs3)cc2)C(=O)N1C(=O)c1ccccc1
## Output 21

## Input Field entry: Cc1cccc(C(=O)N2C(=O)S/C(=C\c3ccc(S(=O)(=O)Nc4nc(-c5ccccc5)cs4)cc3)C2=O)c1
## Output 18

## Input Field entry: O=C1S/C(=C\c2ccc(S(=O)(=O)Nc3nc(-c4ccccc4)cs3)cc2)C(=O)N1C(=O)c1ccc(Cl)cc1
## Output 24

## Input Field entry: O=C1S/C(=C\c2ccc(S(=O)(=O)Nc3nc(-c4ccccc4)cs3)cc2)C(=O)N1C(=O)c1cccc([N+](=O)[O-])c1
## Output 21

## Input Field entry: O=C1S/C(=C\c2ccc(S(=O)(=O)Nc3nc(-c4ccccc4)cs3)cc2)C(=O)N1C(=O)c1ccc([N+](=O)[O-])cc1
## Output 25
